Target: D(3) dopamine receptor (Homo sapiens) (UniProt P35462)
Sequence (P35462 whole entry, looked up): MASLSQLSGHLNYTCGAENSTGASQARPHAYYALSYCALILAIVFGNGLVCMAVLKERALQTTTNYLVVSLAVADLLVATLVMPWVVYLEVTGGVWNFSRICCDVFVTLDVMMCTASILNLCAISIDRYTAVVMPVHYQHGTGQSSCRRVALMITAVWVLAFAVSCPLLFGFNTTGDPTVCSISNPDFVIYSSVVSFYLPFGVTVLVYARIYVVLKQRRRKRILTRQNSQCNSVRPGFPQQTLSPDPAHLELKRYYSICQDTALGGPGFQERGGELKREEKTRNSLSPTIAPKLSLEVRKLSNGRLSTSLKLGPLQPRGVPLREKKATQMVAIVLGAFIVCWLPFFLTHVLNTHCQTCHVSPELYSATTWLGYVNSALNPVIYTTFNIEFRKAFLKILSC
Assay: qHTS of D3 Dopamine Receptor Agonist: qHTS; also: 0% is about no effect
Conditions: D3R DiscoveRx beta-arrestin cells, luminescence, 90 min; hits give high values
Out of some 410,000 compounds screened, about 2,400 (0.59%) were called active. The sample holds actives, similar compounds and a random draw of the others, so the mix is not that of the screen.
Entries and their max activation values follow.
readout kind: max activation (%)

> print(dat)
                       smiles.representation    readout.kind  unit.string  measured
 1  CC(C)c1ccc(NC(=O)CN(C)S(=O)(=O)c2ccc3c(c2)c(=O)n(C)c(=O)n3C)cc1  max activation            %     0.167
 2  CCOC(=O)c1c(-c2ccc(OC)cc2)oc2ccc(OCc3ccc(C(=O)OC)cc3)cc12  max activation            %      9.24
 3  Cc1ccc(C)c(N2CCN(Cc3nnc(-c4ccccc4)o3)CC2)c1  max activation            %     -22.5
 4         Cc1ccc(-c2nnc(CN3CCN(C)CC3)o2)cc1  max activation            %     -9.28
 5  CCNS(=O)(=O)c1cc(-c2nnc(Nc3cccc(C(F)(F)F)c3)c3ccccc23)ccc1C  max activation            %      13.3
 6   c1ccc(-c2cnc(CN3CCN(c4ccccc4)CC3)o2)cc1  max activation            %      47.7
 7  COc1cc(-c2nnc(NC(=O)CS(=O)(=O)c3ccc(Cl)cc3)o2)cc(OC)c1OC  max activation            %     -1.85
 8  CN(CC(=O)Nc1ccccc1F)S(=O)(=O)c1ccc2c(c1)c(=O)n(C)c(=O)n2C  max activation            %      47.6
 9                                       C=O  max activation            %      7.37
10  CCOc1ccc(S(=O)(=O)c2cn(Cc3ccccc3)c3ccc(OCC)cc3c2=O)cc1  max activation            %      6.37
